Reference source: patent US20240384268A1

# target_desc: human TLR7 (Homo sapiens, UniProt Q9NYK1)
# Construct: HA; host or cells: 293XL-hTLR7-HA (HEK293)
# Sequence (Q9NYK1 27-1049): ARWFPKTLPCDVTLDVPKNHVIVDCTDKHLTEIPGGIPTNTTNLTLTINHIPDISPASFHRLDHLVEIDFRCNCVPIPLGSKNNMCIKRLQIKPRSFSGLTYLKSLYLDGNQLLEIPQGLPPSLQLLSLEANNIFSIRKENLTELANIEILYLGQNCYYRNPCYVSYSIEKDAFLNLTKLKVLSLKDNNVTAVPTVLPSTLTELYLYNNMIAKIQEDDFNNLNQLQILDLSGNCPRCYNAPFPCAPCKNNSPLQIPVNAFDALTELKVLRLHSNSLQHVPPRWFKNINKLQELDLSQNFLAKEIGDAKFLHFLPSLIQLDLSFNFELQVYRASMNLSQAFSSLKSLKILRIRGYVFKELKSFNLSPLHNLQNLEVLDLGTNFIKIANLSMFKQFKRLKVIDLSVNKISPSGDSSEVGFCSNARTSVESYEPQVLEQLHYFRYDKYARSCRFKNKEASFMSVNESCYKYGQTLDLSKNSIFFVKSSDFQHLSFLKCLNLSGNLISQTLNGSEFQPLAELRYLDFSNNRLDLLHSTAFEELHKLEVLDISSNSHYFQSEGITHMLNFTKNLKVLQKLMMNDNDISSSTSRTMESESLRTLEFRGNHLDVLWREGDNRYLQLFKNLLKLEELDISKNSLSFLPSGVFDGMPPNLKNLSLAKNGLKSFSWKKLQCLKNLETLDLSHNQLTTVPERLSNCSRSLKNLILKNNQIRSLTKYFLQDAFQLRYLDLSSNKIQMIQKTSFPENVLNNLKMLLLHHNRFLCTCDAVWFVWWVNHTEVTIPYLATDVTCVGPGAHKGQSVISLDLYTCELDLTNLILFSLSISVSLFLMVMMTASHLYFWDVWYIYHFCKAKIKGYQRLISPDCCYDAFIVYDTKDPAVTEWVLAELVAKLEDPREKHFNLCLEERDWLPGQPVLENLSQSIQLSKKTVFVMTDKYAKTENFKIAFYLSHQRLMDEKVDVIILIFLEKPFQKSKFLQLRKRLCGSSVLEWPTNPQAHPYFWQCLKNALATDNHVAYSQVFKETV
# assay_protocol: HEK-TLR7 NF-κB-luciferase reporter, R848 stimulation
# Assay type: cell-based
# run_conditions: HEK-TLR7; oligo ~30-50 min before 1 μg/ml R848 overnight; read-out: IC50 (R848 sensing by TLR7)
In the oligonucleotide strings, read from the 5' end, every base follows the letter of its sugar. An asterisk marks phosphorothioate; unmarked linkages are phosphodiester. Other units and linkages are bracketed, terminal groups are in braces. A string of capitals states the bases alone. d = 2'-deoxy (DNA); m = 2'-O-methyl
parameter: pIC50
Value format note: pIC50 is -log10 of concentration (mol/L); just state the number.

Input line: Reported pIC50 for mG*mC*mG*mG*mU*A*T*C*C*A*T*G*T*C*C*mC*mA*mG*mG*mC (mG*mC*mG*mG*mU*dA*dT*dC*dC*dA*dT*dG*dT*dC*dC*mC*mA*mG*mG*mC; antisense) [C2-Mut1] : what is it?
Output line: 7.36

###

Quick reference: TLR9 100 nM (averaged NF-κB-Luciferase level relative to ODN2006 condition) of the listed items.
# target_desc: human TLR9 (Homo sapiens)
# Construct: HA; host or cells: 293XL-hTLR9-HA (HEK293)
# assay_protocol: HEK-TLR9 NF-κB-luciferase reporter, ODN2006 stimulation
# Format: cell-based
# run_conditions: ASO 100 nM; relative to ODN2006 only, given as fraction

TCCACAATCAAGACAT (antisense; LNA-modified, pattern not given here) [HPRT LNA-551 KL]: 0.851

Input line: Reported TLR9 100 nM (averaged NF-κB-Luciferase level relative to ODN2006 condition) for GCACTTCAGTCTGAGC (antisense; LNA-modified, pattern not given here) [MB21D1-719 LNA KL] : what is it?
Output line: 0.673

Input line: Reported TLR9 100 nM (averaged NF-κB-Luciferase level relative to ODN2006 condition) for GTTCAGTCCTGTCCAT (antisense; LNA-modified, pattern not given here) [HPRT LNA-292 V1] : what is it?
Output line: 1.081

Input line: Reported TLR9 100 nM (averaged NF-κB-Luciferase level relative to ODN2006 condition) for GGCTGGAATCCGAGTT (antisense; LNA-modified, pattern not given here) [EGFR-4705 LNA KL] : what is it?
Output line: 1.051

###

# target_desc: human TLR9 (Homo sapiens, UniProt Q9NR96)
# Construct: HA; host or cells: 293XL-hTLR9-HA (HEK293)
# Sequence (Q9NR96 26-1032): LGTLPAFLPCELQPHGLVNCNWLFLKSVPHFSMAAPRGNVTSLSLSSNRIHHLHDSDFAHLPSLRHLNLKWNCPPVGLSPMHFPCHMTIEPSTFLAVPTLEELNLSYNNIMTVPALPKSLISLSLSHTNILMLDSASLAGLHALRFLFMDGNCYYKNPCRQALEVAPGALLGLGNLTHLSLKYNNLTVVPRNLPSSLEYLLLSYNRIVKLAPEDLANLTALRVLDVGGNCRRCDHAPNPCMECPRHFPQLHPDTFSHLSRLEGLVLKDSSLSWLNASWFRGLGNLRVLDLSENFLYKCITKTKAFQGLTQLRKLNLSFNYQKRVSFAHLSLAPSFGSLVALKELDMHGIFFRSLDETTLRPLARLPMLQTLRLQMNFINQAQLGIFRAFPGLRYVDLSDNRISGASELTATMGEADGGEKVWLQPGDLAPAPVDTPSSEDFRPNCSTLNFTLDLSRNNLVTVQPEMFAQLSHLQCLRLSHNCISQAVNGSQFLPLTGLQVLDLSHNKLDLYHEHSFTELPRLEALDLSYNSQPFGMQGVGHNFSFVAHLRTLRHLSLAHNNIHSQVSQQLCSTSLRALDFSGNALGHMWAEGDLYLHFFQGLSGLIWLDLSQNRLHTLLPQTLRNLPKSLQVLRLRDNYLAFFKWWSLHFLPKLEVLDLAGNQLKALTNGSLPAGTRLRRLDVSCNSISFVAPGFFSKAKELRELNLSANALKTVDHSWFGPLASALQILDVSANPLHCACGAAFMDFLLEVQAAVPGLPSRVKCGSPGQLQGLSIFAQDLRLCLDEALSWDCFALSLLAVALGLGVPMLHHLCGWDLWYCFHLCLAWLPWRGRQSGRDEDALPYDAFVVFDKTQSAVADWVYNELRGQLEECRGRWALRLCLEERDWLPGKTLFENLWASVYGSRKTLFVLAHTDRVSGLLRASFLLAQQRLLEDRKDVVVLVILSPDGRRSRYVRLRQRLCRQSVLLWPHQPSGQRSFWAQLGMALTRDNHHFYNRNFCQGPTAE
# assay_protocol: HEK-TLR9 NF-κB-luciferase reporter, ODN2006 stimulation
# Format: cell-based
# run_conditions: MOE-modified ASO at 500 nM; averaged NF-κB-Luciferase relative to ODN2006 condition
Quick reference: TLR9 500 nM of the listed items.
Simply state the number, no unit and no words.

Input line: Reported TLR9 500 nM for TAGTCAAGGGCATATCCTAC (antisense; 2'-MOE modified, pattern not given here) [HPRT-732 MOE] : what is it?
Output line: 0.462

Input line: Reported TLR9 500 nM for GTGTCTTCATCGGCCCTGCC (antisense; 2'-MOE modified, pattern not given here) [CAMSAP1-2113 MOE] : what is it?
Output line: 0.201

Input line: Reported TLR9 500 nM for ACTGACTGTCTTGAGGGTTC (antisense; 2'-MOE modified, pattern not given here) [MB21D1-1483 MOE] : what is it?
Output line: 0.291

Input line: Reported TLR9 500 nM for GCTTCAGGCGCTGCCTTGCC (antisense; 2'-MOE modified, pattern not given here) [CAMSAP1-2709 MOE] : what is it?
Output line: 0.824

Input line: Reported TLR9 500 nM for GGTGGTCCACAACCCCTTTC (antisense; 2'-MOE modified, pattern not given here) [MB21D1-697 MOE] : what is it?
Output line: 0.071

Input line: Reported TLR9 500 nM for GTCCACATCCTGTGGCTCGT (antisense; 2'-MOE modified, pattern not given here) [CAMSAP1-2906 MOE] : what is it?
Output line: 0.254

Input line: Reported TLR9 500 nM for GCGTGTCTGGAAGCTTCCTT (antisense; 2'-MOE modified, pattern not given here) [CTNN2B-809 MOE] : what is it?
Output line: 0.229

###

Quick reference: TLR8 100 nM of the listed items.
# target_desc: TLR8 (Homo sapiens, UniProt Q9NR97)
# Sequence (Q9NR97 27-1041): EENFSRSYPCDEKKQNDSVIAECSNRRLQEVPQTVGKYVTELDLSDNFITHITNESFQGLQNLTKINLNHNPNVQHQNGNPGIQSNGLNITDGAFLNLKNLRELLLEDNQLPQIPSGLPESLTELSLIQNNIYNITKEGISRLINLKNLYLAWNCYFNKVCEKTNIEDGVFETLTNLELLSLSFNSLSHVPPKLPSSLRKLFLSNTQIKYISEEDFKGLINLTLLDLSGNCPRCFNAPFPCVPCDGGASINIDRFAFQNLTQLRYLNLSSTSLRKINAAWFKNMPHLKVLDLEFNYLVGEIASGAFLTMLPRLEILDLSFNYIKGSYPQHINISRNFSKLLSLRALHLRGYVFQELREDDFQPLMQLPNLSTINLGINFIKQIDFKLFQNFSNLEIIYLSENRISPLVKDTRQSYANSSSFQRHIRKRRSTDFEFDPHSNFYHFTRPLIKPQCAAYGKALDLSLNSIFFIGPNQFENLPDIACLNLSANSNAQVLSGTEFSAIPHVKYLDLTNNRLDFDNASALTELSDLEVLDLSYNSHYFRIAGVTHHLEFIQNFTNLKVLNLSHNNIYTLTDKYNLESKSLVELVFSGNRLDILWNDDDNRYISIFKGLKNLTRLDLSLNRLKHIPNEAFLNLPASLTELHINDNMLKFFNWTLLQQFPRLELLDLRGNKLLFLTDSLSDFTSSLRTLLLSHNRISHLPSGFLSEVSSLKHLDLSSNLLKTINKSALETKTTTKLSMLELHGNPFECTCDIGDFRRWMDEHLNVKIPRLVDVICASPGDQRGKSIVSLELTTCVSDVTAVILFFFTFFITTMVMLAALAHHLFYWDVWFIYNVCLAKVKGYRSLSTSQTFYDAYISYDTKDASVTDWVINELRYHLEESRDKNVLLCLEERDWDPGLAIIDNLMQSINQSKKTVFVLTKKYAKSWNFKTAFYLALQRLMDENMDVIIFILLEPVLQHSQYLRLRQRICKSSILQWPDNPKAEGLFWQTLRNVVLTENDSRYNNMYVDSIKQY
# assay_protocol: HEK-TLR8 NF-κB-luciferase reporter, R848 or Motolimod stimulation (potentiation or inhibition)
# Assay type: cell-based
# Design: expressed in transfected cells; host or cells: 293XLhTLR8 (HEK293)
# run_conditions: MOE-modified ASO at 100 nM; averaged NF-κB-Luciferase relative to R848 condition (fold increase)
Simply state the number, no unit and no words.

Please review the entries below; each comes with its answer.
AGTCGTAGTTGCTTCCTAAC (antisense; 2'-MOE modified, pattern not given here) [MB21D1-1181 MOE]: 3.091
GCTGACAAAGATTCACTGGT (antisense; 2'-MOE modified, pattern not given here) [HPRT-1353 MOE]: 1.475
GGAGGTCTTGGCTTCGTGGA (antisense; 2'-MOE modified, pattern not given here) [MB21D1-524 MOE]: 3.976
TTTGCACACTTCGTACCCAA (antisense; 2'-MOE modified, pattern not given here) [CAMSAP1-4916 MOE]: 1.877
CTCTTGAAGCATCGTATCAC (antisense; 2'-MOE modified, pattern not given here) [CTNN2B-3648 MOE]: 1.650

Input line: Reported TLR8 100 nM for GCGGAGGTCTTGGCTTCGTG (antisense; 2'-MOE modified, pattern not given here) [MB21D1-526 MOE] : what is it?
Output line: 1.598

Input line: Reported TLR8 100 nM for CACCCACTTGGCAGACCATC (antisense; 2'-MOE modified, pattern not given here) [CTNN2B-1576 MOE] : what is it?
Output line: 1.440

Input line: Reported TLR8 100 nM for TCGCACTTCAGTCTGAGCAG (antisense; 2'-MOE modified, pattern not given here) [MB21D1-719 MOE] : what is it?
Output line: 1.697

###

# target_desc: TLR8 (Homo sapiens, UniProt Q9NR97)
# assay_protocol: HEK-TLR8 NF-κB-luciferase reporter, R848 or Motolimod stimulation (potentiation or inhibition)
# Type: cell-based
# Set-up: expressed in transfected cells; host or cells: 293XLhTLR8 (HEK293)
# run_conditions: MOE-modified ASO at 500 nM; averaged NF-κB-Luciferase relative to R848 condition (fold increase)
Quick reference: TLR8 500 nM of the listed items.

GGTCCATACCCAAGGCATCC (antisense; 2'-MOE modified, pattern not given here) [CTNN2B-2446 MOE]: 2.107

Input line: Reported TLR8 500 nM for ATGTCCCGCCACTGGATGCT (antisense; 2'-MOE modified, pattern not given here) [EGFR-727 MOE] : what is it?
Output line: 1.708

Input line: Reported TLR8 500 nM for ACAGTGTTGAGATACTCGGG (antisense; 2'-MOE modified, pattern not given here) [EGFR-3652 MOE] : what is it?
Output line: 8.261

Input line: Reported TLR8 500 nM for GGCATCCACCACGTCGTCCA (antisense; 2'-MOE modified, pattern not given here) [EGFR-3266 MOE] : what is it?
Output line: 1.566

Input line: Reported TLR8 500 nM for TGGGCTGGAATCCGAGTTAT (antisense; 2'-MOE modified, pattern not given here) [EGFR-4705 MOE] : what is it?
Output line: 2.058

Input line: Reported TLR8 500 nM for GAACCACGTCTGCTCTAACA (antisense; 2'-MOE modified, pattern not given here) [CAMSAP1-1635 MOE] : what is it?
Output line: 3.827

Input line: Reported TLR8 500 nM for GTGTCCTTGCACGTGGCTTC (antisense; 2'-MOE modified, pattern not given here) [EGFR-1015 MOE] : what is it?
Output line: 1.274

Input line: Reported TLR8 500 nM for TCAAAGGACTGAGGAAAGGG (antisense; 2'-MOE modified, pattern not given here) [CAMSAP1-6273 MOE] : what is it?
Output line: 3.406

Input line: Reported TLR8 500 nM for GGTGGTGGCCACCCATCTCA (antisense; 2'-MOE modified, pattern not given here) [CTNN2B-2479 MOE] : what is it?
Output line: 0.874

Input line: Reported TLR8 500 nM for TAGGCACTTTGCCTCCTTCT (antisense; 2'-MOE modified, pattern not given here) [EGFR-2859 MOE] : what is it?
Output line: 0.884

Input line: Reported TLR8 500 nM for GCGGAGGTCTTGGCTTCGTG (antisense; 2'-MOE modified, pattern not given here) [MB21D1-526 MOE] : what is it?
Output line: 2.226

Input line: Reported TLR8 500 nM for ATCCAACACTTCGTGGGGTC (antisense; 2'-MOE modified, pattern not given here) [HPRT-668 MOE] : what is it?
Output line: 1.519

Input line: Reported TLR8 500 nM for GCGTGTCTGGAAGCTTCCTT (antisense; 2'-MOE modified, pattern not given here) [CTNN2B-809 MOE] : what is it?
Output line: 0.494

Input line: Reported TLR8 500 nM for GTCTTGGCTTCGTGGAGCAG (antisense; 2'-MOE modified, pattern not given here) [MB21D1-520 MOE] : what is it?
Output line: 3.536
